Target: BuChE from horse serum (Equus caballus, UniProt P81908)
Construct: BuChE from horse serum (EC 3.1.1.8, MP Biomedicals)
Sequence (P81908 whole entry): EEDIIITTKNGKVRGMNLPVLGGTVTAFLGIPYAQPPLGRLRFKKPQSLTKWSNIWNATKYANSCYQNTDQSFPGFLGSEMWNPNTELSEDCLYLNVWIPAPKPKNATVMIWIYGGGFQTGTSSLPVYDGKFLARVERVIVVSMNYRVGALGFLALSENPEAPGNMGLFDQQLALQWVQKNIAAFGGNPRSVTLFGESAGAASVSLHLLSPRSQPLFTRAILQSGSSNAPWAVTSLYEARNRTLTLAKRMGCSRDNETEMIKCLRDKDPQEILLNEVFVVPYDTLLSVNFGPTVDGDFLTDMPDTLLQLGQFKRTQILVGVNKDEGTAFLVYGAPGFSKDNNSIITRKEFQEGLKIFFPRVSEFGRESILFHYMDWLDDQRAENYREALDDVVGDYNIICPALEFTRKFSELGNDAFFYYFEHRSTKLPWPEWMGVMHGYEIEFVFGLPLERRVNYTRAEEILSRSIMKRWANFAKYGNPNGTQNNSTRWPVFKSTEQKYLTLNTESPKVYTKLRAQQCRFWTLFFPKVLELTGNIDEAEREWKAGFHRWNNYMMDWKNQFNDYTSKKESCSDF
Experiment: biochemical
ENDPOINT_LABEL: IC50

Entry CC(C)=CCC[C@](C)(O)[C@@H]1CC=C(C)CC1 [alpha-bisabolol, Alpha-bisabolol] , IC50 reported as < 45 µM

* * *

Target: AChE from Electric eel (Electrophorus electricus, UniProt O42275)
Sequence (O42275 24-633): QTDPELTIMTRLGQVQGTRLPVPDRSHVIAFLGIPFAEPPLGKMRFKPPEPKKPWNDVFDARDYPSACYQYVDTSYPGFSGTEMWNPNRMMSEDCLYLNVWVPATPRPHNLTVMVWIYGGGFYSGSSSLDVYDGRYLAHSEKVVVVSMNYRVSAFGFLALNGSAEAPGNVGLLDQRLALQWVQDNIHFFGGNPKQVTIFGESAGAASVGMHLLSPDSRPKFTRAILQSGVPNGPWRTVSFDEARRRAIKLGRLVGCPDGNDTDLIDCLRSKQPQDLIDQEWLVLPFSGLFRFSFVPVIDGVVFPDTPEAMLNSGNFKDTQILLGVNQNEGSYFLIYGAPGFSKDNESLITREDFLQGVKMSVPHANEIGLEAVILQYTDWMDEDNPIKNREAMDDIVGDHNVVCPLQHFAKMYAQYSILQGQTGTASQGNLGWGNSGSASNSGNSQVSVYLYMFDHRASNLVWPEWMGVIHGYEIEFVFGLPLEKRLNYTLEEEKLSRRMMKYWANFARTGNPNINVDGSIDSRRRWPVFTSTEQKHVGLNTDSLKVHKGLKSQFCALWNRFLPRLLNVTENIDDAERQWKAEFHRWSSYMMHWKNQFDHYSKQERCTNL
pIC50: −log10 of the molar value.
ENDPOINT_LABEL: pIC50

In plain terms, CC(C)=CCC[C@](C)(O)[C@@H]1CC=C(C)CC1 [alpha-bisabolol, Alpha-bisabolol] has a documented pIC50 of > 4.35
